Tested on: SNB-19 CNS
Select the correct class. Options are yes for active, no for inactive and nothing else.

Use the examples below as a reference point.
molecule: COc1ccc(-c2cn3ccnc3c(-c3ccc4ncn(C5CCCCC5)c4c3)n2)cc1
target_system: SNB-19 CNS
class: no

molecule: Cc1ccc(S(=O)(=O)NCCN2c3nc4ccccc4cc3Sc3cc4ccccc4nc32)cc1
target_system: SNB-19 CNS
class: no

molecule: OCC1OC(N2C=C(c3nc4ccccc4s3)C3C=CC=CC32)C(O)C1O (stereo not given)
target_system: SNB-19 CNS
class: no

Problem: Look up the recorded call for Cc1ccc(-c2cc3nc(-c4ccccc4)nc(C(Cl)Cl)n3n2)cc1 in this test.
Result: no

Problem: Look up the recorded call for ClCCn1cnc2c(SCc3ccccc3)ncnc21 in this test.
Result: no

Problem: Look up the recorded call for COC(=O)c1ccc2c(c1)c1c(C)c3cnccc3c(C)c1n2C in this test.
Result: yes

Problem: Look up the recorded call for C=C1C(O)C2C(=C(CC(C)C)C13CC3)C(=O)C(C)(C)C2OC (stereo not given) in this test.
Result: no

Hello, the source for this data is PubChem BioAssay (NCI), in case you need it.
